Attribute: growth
# Test system: HL-60(TB) leukemia
# assayText: NCI-60 one-dose screen, 48 h (100 = growth as untreated, 0 = no growth, -100 = all killed)
# assayContext: 10 µM unless noted
About 83,000 compounds went through this panel and 20% of them were active in at least one assay; those are over-represented in the sample as a whole. Calls of active or inactive are those of the source. How the source made its calls: active means growth percent below 10; inactive means the rest.

Use these answered entries as a reference point.
compound | growth
COc1cc2c(=O)[nH]c3cc([N+](=O)[O-])ccc3c2cc1[N+](=O)[O-] | 71.1% (inactive)
COc1ccccc1N1CCN(CC(O)COc2c(Br)c(Br)c(Br)c3c2OC(C)(C)C3)CC1 (centres undefined) | 10.3% (inactive)
COc1ccc(-c2nc(-c3cn(C)c4ncccc34)cs2)cc1 | 13% [100 µM] (inactive)
Cc1cccc(NC(=O)c2sc3nc4c(cc3c2N)CN(Cc2ccccc2)CC4)c1C | 7.62% (active)
CCCc1n(Cc2ccc3ccccc3n2)cc[n+]1Cc1ccc2ccccc2c1 | -53.7% (active)
COc1ccc(-c2cc(C(=O)N3N=C(c4ccc(N)cc4)CC3c3ccc(OC)cc3)c3cc(OC)ccc3n2)cc1 (centres undefined) | -7.72% (active)
CCOc1ccc(-n2cc(-c3ccc(N(C)C)cc3)[n+]3c2CCCCC3)cc1 | -0.266% (active)
CC(=O)OC[C@]12CC[C@@H](/C(C)=N/O)[C@@H]1[C@H]1CC[C@@H]3[C@@]4(C)CCCNC(C)(C)[C@@H]4CC[C@@]3(C)[C@]1(C)CC2 | 37.7% (inactive)

Continue with the next compound.
Can you look up the measured growth of C#Cc1cccc(Nc2nc3cc([N+](=O)[O-])ccc3nc2Nc2ccc(O)cc2)c1 for me?
4.42% (active)

Every entry's value here was drawn from PubChem BioAssay (NCI).
